Answer each item with its documented pIC50.
Target: His-mHtt and GST-CaM (CaM–mHtt interaction) (Homo sapiens, UniProt P0DP23+P42858)
Sequence (P42858 whole entry, one chain of several): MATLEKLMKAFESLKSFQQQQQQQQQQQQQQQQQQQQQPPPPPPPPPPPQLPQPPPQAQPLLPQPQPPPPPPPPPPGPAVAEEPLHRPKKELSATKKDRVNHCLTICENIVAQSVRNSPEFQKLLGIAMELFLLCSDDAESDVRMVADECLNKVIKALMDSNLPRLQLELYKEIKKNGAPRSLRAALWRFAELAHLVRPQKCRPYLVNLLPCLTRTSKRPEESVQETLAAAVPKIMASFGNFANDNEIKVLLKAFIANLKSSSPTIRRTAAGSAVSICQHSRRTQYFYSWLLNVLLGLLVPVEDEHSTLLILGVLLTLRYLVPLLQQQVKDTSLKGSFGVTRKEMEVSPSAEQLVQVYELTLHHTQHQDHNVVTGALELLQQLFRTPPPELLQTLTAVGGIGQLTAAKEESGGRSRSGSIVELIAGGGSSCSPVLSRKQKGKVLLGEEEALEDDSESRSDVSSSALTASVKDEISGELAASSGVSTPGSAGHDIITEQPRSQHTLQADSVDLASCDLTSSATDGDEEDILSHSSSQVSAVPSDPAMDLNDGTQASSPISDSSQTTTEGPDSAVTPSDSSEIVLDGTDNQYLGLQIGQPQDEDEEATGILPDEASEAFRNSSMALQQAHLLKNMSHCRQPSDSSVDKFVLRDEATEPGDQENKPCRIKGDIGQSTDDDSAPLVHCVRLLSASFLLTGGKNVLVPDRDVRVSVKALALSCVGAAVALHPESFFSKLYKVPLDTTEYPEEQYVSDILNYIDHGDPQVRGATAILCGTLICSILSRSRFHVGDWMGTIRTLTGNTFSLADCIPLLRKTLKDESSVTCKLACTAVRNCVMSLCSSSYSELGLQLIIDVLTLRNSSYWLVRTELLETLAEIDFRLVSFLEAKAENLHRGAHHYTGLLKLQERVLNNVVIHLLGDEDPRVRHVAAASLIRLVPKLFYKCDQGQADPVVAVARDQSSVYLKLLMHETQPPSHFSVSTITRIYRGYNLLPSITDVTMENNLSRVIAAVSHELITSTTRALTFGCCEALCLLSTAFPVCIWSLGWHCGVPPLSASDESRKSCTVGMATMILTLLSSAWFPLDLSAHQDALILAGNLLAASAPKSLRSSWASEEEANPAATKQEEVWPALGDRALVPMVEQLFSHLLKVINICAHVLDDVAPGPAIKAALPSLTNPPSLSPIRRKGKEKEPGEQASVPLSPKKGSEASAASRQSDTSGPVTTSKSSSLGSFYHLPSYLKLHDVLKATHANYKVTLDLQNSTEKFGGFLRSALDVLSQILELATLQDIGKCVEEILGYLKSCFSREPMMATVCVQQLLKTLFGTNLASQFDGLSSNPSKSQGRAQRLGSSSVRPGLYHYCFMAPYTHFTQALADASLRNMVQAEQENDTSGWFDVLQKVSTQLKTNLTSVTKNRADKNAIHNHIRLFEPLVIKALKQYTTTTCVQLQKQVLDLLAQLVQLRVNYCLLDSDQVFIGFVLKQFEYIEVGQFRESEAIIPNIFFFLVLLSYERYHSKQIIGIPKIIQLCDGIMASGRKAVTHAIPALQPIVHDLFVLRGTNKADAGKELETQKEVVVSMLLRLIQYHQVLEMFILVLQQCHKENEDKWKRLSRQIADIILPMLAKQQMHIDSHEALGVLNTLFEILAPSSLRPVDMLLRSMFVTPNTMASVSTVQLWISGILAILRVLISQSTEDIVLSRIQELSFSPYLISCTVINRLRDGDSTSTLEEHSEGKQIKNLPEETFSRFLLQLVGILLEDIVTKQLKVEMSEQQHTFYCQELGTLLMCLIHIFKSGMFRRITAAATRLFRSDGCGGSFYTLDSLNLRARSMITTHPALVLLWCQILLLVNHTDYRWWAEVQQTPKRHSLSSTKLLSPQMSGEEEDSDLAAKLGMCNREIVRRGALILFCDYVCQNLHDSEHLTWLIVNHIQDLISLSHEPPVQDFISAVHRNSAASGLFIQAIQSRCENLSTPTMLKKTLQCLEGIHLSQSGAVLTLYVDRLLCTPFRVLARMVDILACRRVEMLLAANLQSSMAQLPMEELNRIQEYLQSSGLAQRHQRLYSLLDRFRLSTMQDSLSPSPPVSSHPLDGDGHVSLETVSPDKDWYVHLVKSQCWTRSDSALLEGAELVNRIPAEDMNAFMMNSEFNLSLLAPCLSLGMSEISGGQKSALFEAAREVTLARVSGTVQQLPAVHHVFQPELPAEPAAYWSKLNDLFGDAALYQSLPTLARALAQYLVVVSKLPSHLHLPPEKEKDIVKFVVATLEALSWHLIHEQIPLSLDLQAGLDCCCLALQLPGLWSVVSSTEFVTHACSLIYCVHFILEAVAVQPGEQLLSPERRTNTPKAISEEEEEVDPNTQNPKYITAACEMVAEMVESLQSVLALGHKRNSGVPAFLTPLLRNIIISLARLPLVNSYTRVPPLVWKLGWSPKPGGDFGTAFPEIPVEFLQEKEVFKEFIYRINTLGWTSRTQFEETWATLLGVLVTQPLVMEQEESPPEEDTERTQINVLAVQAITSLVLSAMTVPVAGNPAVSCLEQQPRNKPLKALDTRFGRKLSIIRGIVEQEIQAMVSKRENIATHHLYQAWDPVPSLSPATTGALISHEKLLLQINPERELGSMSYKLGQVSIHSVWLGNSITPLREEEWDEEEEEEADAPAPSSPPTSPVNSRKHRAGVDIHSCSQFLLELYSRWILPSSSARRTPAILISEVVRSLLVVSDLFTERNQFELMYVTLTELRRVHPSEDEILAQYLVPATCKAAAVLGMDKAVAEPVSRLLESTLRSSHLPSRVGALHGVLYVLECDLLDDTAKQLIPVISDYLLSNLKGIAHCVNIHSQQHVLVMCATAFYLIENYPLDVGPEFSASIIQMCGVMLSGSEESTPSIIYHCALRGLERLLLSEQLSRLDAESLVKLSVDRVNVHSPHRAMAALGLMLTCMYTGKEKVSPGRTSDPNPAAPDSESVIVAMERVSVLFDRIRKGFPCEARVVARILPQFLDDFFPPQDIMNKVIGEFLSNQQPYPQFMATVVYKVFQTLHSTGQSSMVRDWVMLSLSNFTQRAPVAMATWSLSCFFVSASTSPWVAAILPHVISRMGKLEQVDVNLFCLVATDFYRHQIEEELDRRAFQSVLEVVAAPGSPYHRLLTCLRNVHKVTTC
Test: CaM/mHtt AlphaScreen binding assay
Settings: read-out: AlphaScreen CaM–mHtt, IC50; triplicate
One number for each entry, as −log10 of the molar value.

Below, 5 compounds whose answers are already recorded.
>>> df
                                   compound  observed_result
0  C=C1CCN([C@H](CC(C)C)C(=O)NCc2ccc(Cl)cc2)S(=O)(=O)c2ccccc21 [Compound 10c]             5.52
1  CC(C)C[C@@H](C(=O)NCC1CCCCC1)N1CCC(=O)c2ccccc2S1(=O)=O [Compound 11g]             4.51
2  C=C1CCN([C@H](CC(C)C)C(=O)NCc2ccc(Cl)c(Cl)c2)S(=O)(=O)c2ccccc21 [Compound 10a]             6.01
3  CC(C)C[C@@H](C(=O)NCCc1ccc(Cl)c(Cl)c1)N1CCC(=O)c2ccccc2S1(=O)=O [Compound 11h]             6.01
4  CC(C)C[C@@H](C(=O)NCc1ccc(Cl)c(Cl)c1)N1CCC(=O)c2ccccc2S1(=O)=O [Compound 11a]             5.67

Here is the next item to consider.
Please look up its pIC50: C=C1CCN([C@@H](CC(C)C)C(=O)NCc2ccc(Cl)c(Cl)c2)S(=O)(=O)c2ccccc21 [Compound 9a] 5.99

====

Molecular target: His-mHtt and GST-CaM (CaM–mHtt interaction) (Homo sapiens, UniProt P0DP23+P42858)
Assay: CaM/mHtt AlphaScreen binding assay
Conditions: read-out: AlphaScreen CaM–mHtt, IC50; triplicate
pIC50: −log10 of the molar value.
Cut-off 5 on pIC50, inclusive. At or above means true (1); below means false (0).

>>> print(df.to_string())
                                   compound                               target_desc      group
0  Cc1ccc(CNC(=O)[C@H](CC(C)C)N2CCC(=O)c3ccccc3S2(=O)=O)cc1 [Compound 11e]  His-mHtt and GST-CaM (CaM–mHtt interaction) (Homo sapiens, UniProt P0DP23+P42858)  false (0)

Does C=C1CCN([C@@H](CC(C)C)C(=O)NCc2ccc(C)cc2)S(=O)(=O)c2ccccc21 [Compound 9e] have a reported pIC50 of at least 5? false (0)

Another compound to look at: C=C1CCN([C@H](CC(C)C)C(=O)NCc2ccc(Cl)c(C(F)(F)F)c2)S(=O)(=O)c2ccccc21 [Compound 10d] true (1)

Another compound to look at: CC(C)C[C@@H](C(=O)NCc1ccc(Cl)c(C(F)(F)F)c1)N1CCC(=O)c2ccccc2S1(=O)=O [Compound 11d] true (1)

Another compound to look at: C=C1CCN([C@@H](CC(C)C)C(=O)NCc2ccc(Cl)c(C(F)(F)F)c2)S(=O)(=O)c2ccccc21 [Compound 9d] true (1)

====

System: SH-SY5Y cells
Experiment: Cytotoxicity assay
Format: cell-based
Settings: SH-SY5Y cells, 24 h incubation, CellTiter-Glo
reported_property: Cytotoxicity (SH-SY5Y cells, 24 h)

>>> df
                                   compound                   reported_property  observed_result
0  C=C1CCN([C@H](CC(C)C)C(=O)NCc2ccc(OC)cc2)S(=O)(=O)c2ccccc21 [Compound 10f]  Cytotoxicity (SH-SY5Y cells, 24 h)          >300 µM

Need Cytotoxicity (SH-SY5Y cells, 24 h) for each of these compounds.
1. C=C1CCN([C@H](CC(C)C)C(=O)NCc2ccc(Cl)cc2)S(=O)(=O)c2ccccc21 [Compound 10c]
2. C=C1CCN([C@@H](CC(C)C)C(=O)NCc2ccc(Cl)c(Cl)c2)S(=O)(=O)c2ccccc21 [Compound 9a]
3. C=C1CCN([C@@H](CC(C)C)C(=O)NCc2ccccc2)S(=O)(=O)c2ccccc21 [Compound 9b]
4. C=C1CCN([C@H](CC(C)C)C(=O)NCc2ccc(Cl)c(C(F)(F)F)c2)S(=O)(=O)c2ccccc21 [Compound 10d]
5. CC(C)C[C@@H](C(=O)NCCc1ccc(Cl)c(Cl)c1)N1CCC(=O)c2ccccc2S1(=O)=O [Compound 11h]
6. C=C1CCN([C@@H](CC(C)C)C(=O)NCC2CCCCC2)S(=O)(=O)c2ccccc21 [Compound 9g]

1: 86 ± 9 µM; 2: >300 µM; 3: >300 µM; 4: >300 µM; 5: 32.3 µM; 6: 101 ± 5 µM

====

System: SH-SY5Y cells
Experiment: Cytotoxicity assay
Assay type: cell-based
Conditions: SH-SY5Y cells, 24 h incubation, CellTiter-Glo
reported_property: Cytotoxicity (SH-SY5Y cells, 24 h) (µM)
Answers are plain numbers, in µM.

In [3]: df
Out[3]:
                                   molecule  units_text  observed_result
0  C=C1CCN([C@H](CC(C)C)C(=O)NCC2CCCCC2)S(=O)(=O)c2ccccc21 [Compound 10g]          µM               99

Need Cytotoxicity (SH-SY5Y cells, 24 h) for each of these molecules.
1. CC(C)C[C@@H](C(=O)NCc1ccc(Cl)c(C(F)(F)F)c1)N1CCC(=O)c2ccccc2S1(=O)=O [Compound 11d]
2. C=C1CCN([C@@H](CC(C)C)C(=O)NCc2ccc(Cl)cc2)S(=O)(=O)c2ccccc21 [Compound 9c]
3. Cc1ccc(CNC(=O)[C@H](CC(C)C)N2CCC(=O)c3ccccc3S2(=O)=O)cc1 [Compound 11e]

[44.2, 94, 43.4]

====

Molecular target: His-mHtt and GST-CaM (CaM–mHtt interaction) (Homo sapiens, UniProt P0DP23+P42858)
Experiment: CaM/mHtt AlphaScreen binding assay
Conditions: read-out: AlphaScreen CaM–mHtt, IC50; triplicate
reported_property: pIC50
Give bare numbers, as −log10 of the molar value.

In [3]: df
Out[3]:
                                   compound  observed_result
0  CC(C)C[C@@H](C(=O)NCc1ccc(Cl)cc1)N1CCC(=O)c2ccccc2S1(=O)=O [Compound 11c]             4.95

Need pIC50 for each of these compounds.
1. CC(C)C[C@@H](C(=O)NCc1ccccc1)N1CCC(=O)c2ccccc2S1(=O)=O [Compound 11b]
2. C=C1CCN([C@H](CC(C)C)C(=O)NCCc2ccc(Cl)c(Cl)c2)S(=O)(=O)c2ccccc21 [Compound 10h]
3. COc1ccc(CNC(=O)[C@H](CC(C)C)N2CCC(=O)c3ccccc3S2(=O)=O)cc1 [Compound 11f]
4. C=C1CCN([C@H](CC(C)C)C(=O)NCc2ccc(C)cc2)S(=O)(=O)c2ccccc21 [Compound 10e]
5. C=C1CCN([C@@H](CC(C)C)C(=O)NCC2CCCCC2)S(=O)(=O)c2ccccc21
6. C=C1CCN([C@H](CC(C)C)C(=O)NCC2CCCCC2)S(=O)(=O)c2ccccc21 [Compound 10g]

1: 4.84; 2: 6.30; 3: 4.28; 4: 4.82; 5: 4.78; 6: 4.91

====

System: SH-SY5Y cells
Experiment: Cytotoxicity assay
Assay type: cell-based
Details: SH-SY5Y cells, 24 h incubation, CellTiter-Glo
Answer each item with its documented Cytotoxicity (SH-SY5Y cells, 24 h).
Numbers only, in µM.

>>> df
                                   molecule  observed_result
0  C=C1CCN([C@H](CC(C)C)C(=O)NCc2ccc(C)cc2)S(=O)(=O)c2ccccc21 [Compound 10e]               64
1  CC(C)C[C@@H](C(=O)NCC1CCCCC1)N1CCC(=O)c2ccccc2S1(=O)=O [Compound 11g]             40.1
2  C=C1CCN([C@H](CC(C)C)C(=O)NCc2ccccc2)S(=O)(=O)c2ccccc21 [Compound 10b]               87
3  CC(C)C[C@@H](C(=O)NCc1ccc(Cl)cc1)N1CCC(=O)c2ccccc2S1(=O)=O [Compound 11c]             41.4
4  C=C1CCN([C@@H](CC(C)C)C(=O)NCc2ccc(C)cc2)S(=O)(=O)c2ccccc21              102
5  CC(C)C[C@@H](C(=O)NCc1ccc(Cl)c(Cl)c1)N1CCC(=O)c2ccccc2S1(=O)=O [Compound 11a]             39.8

Need Cytotoxicity (SH-SY5Y cells, 24 h) for each of these molecules.
1. COc1ccc(CNC(=O)[C@H](CC(C)C)N2CCC(=O)c3ccccc3S2(=O)=O)cc1 [Compound 11f]
2. CC(C)C[C@@H](C(=O)NCc1ccccc1)N1CCC(=O)c2ccccc2S1(=O)=O [Compound 11b]

44.6
43.8
